Study target: ERα LBD (Homo sapiens)
Sequence (P03372 311-547 limits assumed): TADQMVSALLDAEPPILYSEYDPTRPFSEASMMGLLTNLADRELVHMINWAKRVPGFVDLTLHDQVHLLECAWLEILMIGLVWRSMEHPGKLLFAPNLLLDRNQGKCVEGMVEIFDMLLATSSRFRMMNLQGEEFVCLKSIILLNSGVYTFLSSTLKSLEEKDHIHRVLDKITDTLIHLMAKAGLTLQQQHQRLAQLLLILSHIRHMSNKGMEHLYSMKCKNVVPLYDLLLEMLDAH
Experimental details: LanthaScreen TR-FRET coactivator
Outcome measure: EC50 (nM)
Dear colleague, please return just the value in nM, with no unit written.

Request: Dear colleague, please send me the reported EC50 for `OC[C@H]1CC[C@H](c2ccc(O)cc2)CC1` when you can.
Result: 2940
